Across several studies, compounds have been characterized by their Ki on σ1-receptor (Cavia porcellus); a selection follows.
Sequence (Q60492 whole entry): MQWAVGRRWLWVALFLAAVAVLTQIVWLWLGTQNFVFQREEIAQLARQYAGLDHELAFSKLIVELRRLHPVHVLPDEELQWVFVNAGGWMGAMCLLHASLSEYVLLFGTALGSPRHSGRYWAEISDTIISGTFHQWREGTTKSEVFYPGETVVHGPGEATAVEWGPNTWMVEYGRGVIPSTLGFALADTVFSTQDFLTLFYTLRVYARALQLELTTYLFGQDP

{"compound": "C(=C\\c1ccccc1)/COCC1CCN(Cc2ccc3ccccc3c2)CC1", "Ki": "1 to 30 nM"}
{"compound": "C(=C\\c1ccccc1)/COC1CCN(Cc2ccccc2)C1 (stereo not shown)", "Ki": "1 to 30 nM"}
{"compound": "C(=C\\c1ccccc1)/COCCC1CCCCN1Cc1ccccc1 (stereo not shown)", "Ki": "1 to 30 nM"}
{"compound": "C(=C\\c1ccccc1)/COC[C@@H]1CCCN1Cc1ccccc1", "Ki": "1 to 30 nM"}
{"compound": "C(=C/c1ccccc1)/COCCC1CCN(Cc2ccccc2)CC1", "Ki": "31 to 100 nM"}
{"compound": "CC(C)=CCN1CCC(COC/C=C/c2ccccc2)CC1", "Ki": "1 to 30 nM"}
{"compound": "Cn1cccc1-c1ncnc2c1cnn2CCN1CCCCC1", "Ki": "31.5 nM"}
{"compound": "CC1(C)[C@@H](CCOc2ccccc2)C[C@H]1CN1CCOCC1", "Ki": "4.2 nM"}
{"compound": "CN1Cc2c(-c3ccccc3)nnn2[C@@H]2CN(Cc3ccccc3)C[C@@H]21 (racemic)", "Ki": "< 100 nM"}
{"compound": "Cc1cc(COCCN2CCOCC2)nn1-c1ccc2ccccc2c1", "Ki": "209 nM"}
{"compound": "c1ccn2nc(OCCCCN3CCN(C4CCCCC4)CC3)cc2c1", "Ki": "19.9 nM"}
{"compound": "c1ccc(CNc2ncc3n2CCN(CC2CCCCC2)C3)cc1", "Ki": "38 nM"}
{"compound": "CCCN1C(=O)c2c(-c3ccccc3)nnn2[C@@H]2CN(Cc3ccccc3)C[C@@H]21 (racemic)", "Ki": "> 500 nM"}
